- Test system: ACHN renal
- ASSAY_REMARKS: NCI tumour cell line growth inhibition, 48 h
Overview of recorded TGI for various compounds
Unit µM implied. Number only.

Answered cases to consult:
C=C(CCC(C)C1CCC2C3=C(C(=O)CC21C)C1(C)CCC(=O)[C@@H](C)C1CC3=O)C(C)C(=O)O (stereo partly drawn)
88.6
CN(C)CCNC(=O)c1ccc(NCCCN(C)CCCNc2ccc3c(=O)n(CCN(C)C)c(=O)n4c5ccccc5c(=O)c2c34)c2c(=O)c3ccccc3[nH]c12
0.653
O=C1C=CC(=O)C(CNc2ccc(C(=O)OC34CC5CC(CC(C5)C3)C4)cc2)=C1
19.1
COc1ccccc1/C=C1\CCC(CCN(C)C)(C2=CCCC2)C1=O (stereo not drawn)
34.1
C[C@H](NC(=O)[C@@H]1CSSC[C@@H](NC(=O)c2nc3ccccc3cc2O)C(=O)NCC(=O)N1C)c1ccccc1
12.8
O=C([CH-]C(=O)c1ccccc1)c1ccccc1.O=C([CH-]C(=O)c1ccccc1)c1ccccc1.O=C([CH-]C(=O)c1ccccc1)c1ccccc1.[Nd+3].[OH3+]
21.2

Query string: Request the reported TGI associated with CC[N+]1(C)CCC(O)(/C=C/c2ccc(OC)cc2)C(C(=O)/C=C/c2ccc(OC)cc2)C1 (stereo not drawn)
Result string: 23.2

Query string: Could you share which TGI value was measured for Oc1ccc(C(c2ccc(O)cc2)c2ccc(Cl)cn2)cc1 ?
Result string: 22.2

Query string: Which TGI value is on record for Cc1ccc(/C(=N\N=C(N)N)c2ccccc2)cc1 ?
Result string: 14.8

Query string: Fill in the blank: the reported TGI of Cc1cc(=O)n2nc(SCc3ccccc3)sc2n1 is ____.
Result string: 56.2

Query string: Field request: TGI | item: COc1cc(/C=C/C(=O)c2c(=O)o[nH][n+]2-c2ccccc2)ccc1[O-]
Result string: 6.17

Query string: Query: TGI; subject: c1ccc(CCN2CCc3[nH]c4ccccc4c3C2)cc1
Result string: 96.7

---

- Tested on: SK-OV-3 ovarian
- ASSAY_REMARKS: NCI tumour cell line growth inhibition, 48 h
MEASURE: TGI

Some compounds with recorded TGI:
O=C([CH-]C(=O)c1ccccc1)c1ccccc1.O=C([CH-]C(=O)c1ccccc1)c1ccccc1.O=C([CH-]C(=O)c1ccccc1)c1ccccc1.[Nd+3].[OH3+]
29.3 µM
C/C=C\C(CC(=O)NCCc1cn(C(=O)OCc2ccccc2)c2ccccc12)CC(=O)OC (centres undefined)
> 100 µM
CCCc1c(CC)c(=N)c2ccccc2n1C
> 100 µM
COc1ccc(C2SCC(=O)N2NC(=O)C(O)c2ccccc2)cc1OC (centres undefined)
> 100 µM
Cc1ccc(/C(=N\N=C(N)N)c2ccccc2)cc1
10.4 µM

Query string: Quick one: TGI of CN1CCN(c2ccc(NC(=O)c3nc4ccc5[nH]ncc5c4c4c3CCCC4)cc2C(F)(F)F)CC1 ?
Result string: 5.25 µM

Query string: Quick one: TGI for C[C@H](NC(=O)[C@@H]1CSSC[C@@H](NC(=O)c2nc3ccccc3cc2O)C(=O)NCC(=O)N1C)c1ccccc1 ?
Result string: 21.2 µM

Query string: For the compound c1ccc(CCN2CCc3[nH]c4ccccc4c3C2)cc1 , what TGI is on record?
Result string: > 100 µM

Query string: # get_value(readout='TGI', item= CCc1cccc(C(C)C)c1NC(=O)C(=O)CC(=O)c1c(C)n([O-])c2ccccc2[n+]1=O )
Result string: > 100 µM

Query string: Can you look up the measured TGI of Cc1ccc(C(=O)N/N=C(\N=Nc2cccc(Cl)c2)c2ccc(N(CCC#N)CCC#N)cc2C)cc1 for me?
Result string: > 100 µM

Query string: Query: TGI; subject: Nc1nc2c(c(=O)[nH]1)NC(CO)CN2 (centres undefined)
Result string: > 100 µM

Query string: // TGI lookup, key: COc1cc2c(cc1OCCCC(=O)Nc1cc(C(=O)Nc3cc(C(=O)Nc4cc(C(=O)NCCCN(C)C)n(C)n4)n(C)n3)n(C)n1)N=CC1CCCN1C2=O (centres undefined)
Result string: > 100 µM

Query string: Request the reported TGI associated with CC1(C)C(=O)C(C)(C)C1=NN
Result string: > 100 µM

Query string: # lookup: TGI of CN(C)c1ccc([O-])cc1.CN(C)c1ccc([O-])cc1.CN(C)c1ccc([O-])cc1.CN(C)c1ccc([O-])cc1.[Ti+4]
Result string: > 100 µM

Query string: Any idea what its TGI is? The compound is CSC(CC(=O)O)C(=O)O (centres undefined)
Result string: > 100 µM
